meta.source: PubChem BioAssay AID1963858

- System: HOP-62 multicell spheroids with HUVEC/MSC, viability
- Assay Procedure: Anticancer human tumor HOP-62 cell line growth inhibition [KRAS2];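 note: viability read after a week of compound exposure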;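 for viability, T/C: 100% = DMSO vehicle-treated spheroids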
- Condition: second compound 3.16 µM; first compound 3.16 µM; stronger effect = lower value
Measurement Name: viability, T/C

Record excerpt, results attached:
1. CCNC(=O)CC1N=C(c2ccc(Cl)cc2)c2cc(OC)ccc2-n2c(C)nnc21 (stereo not given) + CNCc1ccccc1-c1csc(C(C)Nc2nc(C)nc3cc(OC)c(OC)cc23)c1 :: 0.06%
2. O=C(c1cc(Cc2n[nH]c(=O)c3ccccc23)ccc1F)N1CCN(C(=O)C2CC2)CC1 + CC1OCC2(CCN(c3cnc(Sc4ccnc(N)c4Cl)c(N)n3)CC2)C1N :: 37%
3. CCNC(=O)CC1N=C(c2ccc(Cl)cc2)c2cc(OC)ccc2-n2c(C)nnc21 (stereo not given) + CC1OCC2(CCN(c3cnc(Sc4ccnc(N)c4Cl)c(N)n3)CC2)C1N :: 16.1%
4. COC(=O)c1ccc2c(C(=Nc3ccc(N(C)C(=O)CN4CCN(C)CC4)cc3)c3ccccc3)c(O)[nH]c2c1 + CNCc1ccccc1-c1csc(C(C)Nc2nc(C)nc3cc(OC)c(OC)cc23)c1 :: 0.07%

Ask | Answer briefly: viability, T/C recorded on HOP-62 multicell spheroids with HUVEC/MSC, viability for COC(=O)c1ccc2c(C(=Nc3ccc(N(C)C(=O)CN4CCN(C)CC4)cc3)c3ccccc3)c(O)[nH]c2c1 + CC1OCC2(CCN(c3cnc(Sc4ccnc(N)c4Cl)c(N)n3)CC2)C1N
Reply | 21.2%

###

pIC50 values, listed per item
- Tested on: HOP-62 multicell spheroids with HUVEC/MSC, viability
- Assay Procedure: Anticancer human tumor HOP-62 cell line growth inhibition [KRAS2];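 note: viability read after a week of compound exposure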
- Condition: curve of first compound; second compound 1 µM
pIC50: −log10 of the molar value.

Recorded pIC50, per entry:
1) CC(C)NCC(C(=O)N1CCN(c2ncnc3c2C(C)CC3O)CC1)c1ccc(Cl)cc1 (stereo not drawn) + C=CC(=O)N1CCN(c2nc(OCC3CCCN3C)nc3c2CCN(c2cccc4cccc(C)c24)C3)CC1CC#N :: > 7.50
2) CN(C)C/C=C/C(=O)Nc1cc2c(Nc3ccc(F)c(Cl)c3)ncnc2cc1O[C@H]1CCOC1 + C=CC(=O)N1CCN(c2nc(=O)n(-c3c(C)ccnc3C(C)C)c3nc(-c4c(O)cccc4F)c(F)cc23)C(C)C1 :: < 7.00

Next item in the queue.
Ask | Fill in pIC50 for record Cn1nccc1Nc1nccc(-c2cc3c(s2)C(C)(C)N(CCN2CCOCC2)C3=O)n1 + C=CC(=O)N1CCN(c2nc(OCC3CCCN3C)nc3c2CCN(c2cccc4cccc(C)c24)C3)CC1CC#N
Reply | > 7.50

###

- Test system: HOP-62 multicell spheroids with HUVEC/MSC, viability
- Assay Procedure: Anticancer human tumor HOP-62 cell line growth inhibition [KRAS2];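 note: viability read after a week of compound exposure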;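 for viability, T/C: 100% = DMSO vehicle-treated spheroids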
- Condition: second compound 1 µM; first compound 0.1 µM; stronger effect = lower value
- From the text: Multicellular complex tumor spheroid response to RAS pathway inhibitors in combination with a targeted agents in patient-derived cell lines with oncogenic KRAS variants from multiple cancer types A high-throughput screen of multi-cell type tumor spheroids was designed to identify active combinations of targeted small molecules and KRAS pathway inhibitors. […] Compounds. […] If the clinical Cmax for an agent had not been determined, the highest concentration tested was 10 microM. […]
Measurement Name: viability, T/C (%)
The reply should be a number in %, with the unit left off.

# count of solved cases: 7
1. CC1(C)CCC(CN2CCN(c3ccc(C(=O)NS(=O)(=O)c4ccc(NCC5CCOCC5)c([N+](=O)[O-])c4)c(Oc4cnc5[nH]ccc5c4)c3)CC2)=C(c2ccc(Cl)cc2)C1 + C=CC(=O)N1CCN(c2nc(OCC3CCCN3C)nc3c2CCN(c2cccc4cccc(C)c24)C3)CC1CC#N :: 22.6
2. CC1OCC2(CCN(c3cnc(Sc4ccnc(N)c4Cl)c(N)n3)CC2)C1N (stereo not drawn) + CNCc1ccccc1-c1csc(C(C)Nc2nc(C)nc3cc(OC)c(OC)cc23)c1 :: 76.2
3. CC1(C)CCC(CN2CCN(c3ccc(C(=O)NS(=O)(=O)c4ccc(NCC5CCOCC5)c([N+](=O)[O-])c4)c(Oc4cnc5[nH]ccc5c4)c3)CC2)=C(c2ccc(Cl)cc2)C1 + COc1cc2nc(C)nc(NC(C)c3cc(N)cc(C(F)(F)F)c3)c2cc1OC1CCOC1 :: 88
4. CC(C)n1nc(-c2ccc3oc(N)nc3c2)c2c(N)ncnc21 + C=CC(=O)N1CCN(c2nc(OCC3CCCN3C)nc3c2CCN(c2cccc4cccc(C)c24)C3)CC1CC#N :: 5.88
5. CCN1CCN(Cc2ccc(Nc3ncc(F)c(-c4cc(F)c5nc(C)n(C(C)C)c5c4)n3)nc2)CC1 + C=CC(=O)N1CCN(c2nc(=O)n(-c3c(C)ccnc3C(C)C)c3nc(-c4c(O)cccc4F)c(F)cc23)C(C)C1 :: 60
6. Cn1ncnc1[C@H]1c2n[nH]c(=O)c3cc(F)cc(c23)N[C@@H]1c1ccc(F)cc1 + COc1cc2nc(C)nc(NC(C)c3cc(N)cc(C(F)(F)F)c3)c2cc1OC1CCOC1 :: 57.1
7. CC1COCCN1c1cc(-c2ccnn2C)c2ccnc(-c3ccn[nH]3)c2n1 (stereo not drawn) + COc1cc2nc(C)nc(NC(C)c3cc(N)cc(C(F)(F)F)c3)c2cc1OC1CCOC1 :: 31.4

Ask | Return the recorded viability, T/C value; entry: CCNC(=O)CC1N=C(c2ccc(Cl)cc2)c2cc(OC)ccc2-n2c(C)nnc21 (stereo not drawn) + C=CC(=O)N1CCN(c2nc(=O)n(-c3c(C)ccnc3C(C)C)c3nc(-c4c(O)cccc4F)c(F)cc23)C(C)C1
Reply | 45
